Sequence of the target: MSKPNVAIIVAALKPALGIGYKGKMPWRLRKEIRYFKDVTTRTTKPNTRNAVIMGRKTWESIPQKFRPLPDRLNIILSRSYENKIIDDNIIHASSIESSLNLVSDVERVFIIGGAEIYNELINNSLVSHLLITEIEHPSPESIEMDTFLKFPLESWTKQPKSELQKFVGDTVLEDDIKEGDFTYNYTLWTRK
pIC50: −log10 of the molar value.
Field pIC50: reported value for the protein given by its sequence; entries drawn from several documents.
REPORTED METRIC: pIC50

INSERT INTO measurements (compound, reported_metric, reported) VALUES
  ('COc1ccc(OC)c(CC#Cc2cnc(N)nc2N)c1', 'pIC50', 5.85),
  ('COc1cc(-c2c(C)cccc2C)cc(C(C)C#Cc2c(C)nc(N)nc2N)c1 (racemic)', 'pIC50', 7.35),
  ('CCc1nc(N)nc(N)c1C#CCc1cc(OC)cc(-c2cccc3cnccc23)c1', 'pIC50', 7.15),
  ('CCc1nc(N)nc(N)c1C#CC(C)c1cc(OC)cc(N2CCOCC2)c1 (stereo not given)', 'pIC50', 7.64),
  ('COc1cc(-c2ccncc2)cc(C(C)C#Cc2c(C)nc(N)nc2N)c1 (stereo not given)', 'pIC50', 7.21),
  ('COc1ccc(OC)c(C(C)C#Cc2c(C)nc(N)nc2N)c1 (racemic)', 'pIC50', 7.32),
  ('CCC(C#Cc1c(C)nc(N)nc1N)c1cc(OC)c(OC)c(OC)c1 (racemic)', 'pIC50', 7.35),
  ('Nc1ncc(NCc2ccc(Cl)c(Cl)c2)c(N)n1', 'pIC50', 4.07),
  ('COc1cc(Cc2cnc(N)nc2N)cc(OC)c1OCCCNc1ccc(N(C)C)cc1', 'pIC50', 6.01),
  ('Nc1ncc(OCc2ccccc2Cl)c(N)n1', 'pIC50', 6.14),
  ('COc1cc(C(C)C#Cc2c(C)nc(N)nc2N)cc(N2CCOCC2)c1 (stereo not given)', 'pIC50', 7.68),
  ('Nc1ncc(NCc2ccccc2)c(N)n1', 'pIC50', 5.10),
  ('COc1ccc(CNc2cnc(N)nc2N)cc1', 'pIC50', 4.28),
  ('CCC(CC)n1ccc2c3c(N)nc(N)nc3ccc21', 'pIC50', 8.40),
  ('Nc1ncc(NCc2cccc(Cl)c2)c(N)n1', 'pIC50', 4.86),
  ('COc1ccc(Cc2cnc(N)nc2N)cc1OCCCCN1C(=O)c2ccccc2C1=O', 'pIC50', 7.21),
  ('Cc1ccc(S(=O)(=O)NCCCOc2ccc(COc3cnc(N)nc3N)cc2)cc1', 'pIC50', 6.36),
  ('COc1cc(-c2ccc(C(C)(C)C)cc2)cc(C(C)C#Cc2c(C)nc(N)nc2N)c1 (racemic)', 'pIC50', 7.47),
  ('Nc1ncc(OCc2ccc(OCc3ccccc3)cc2)c(N)n1', 'pIC50', 5.55),
  ('COc1cc(C(C#Cc2c(C)nc(N)nc2N)OC)cc(OC)c1OC (racemic)', 'pIC50', 6.49),
  ('COc1cc(C(C)C#Cc2cnc(N)nc2N)cc(OC)c1OC (racemic)', 'pIC50', 6.74),
  ('Nc1ncc(OCc2ccc(Br)c3ccccc23)c(N)n1', 'pIC50', 6.31),
  ('COc1cc(-c2c(C(C)C)cccc2C(C)C)cc(C(C)C#Cc2c(C)nc(N)nc2N)c1 (racemic)', 'pIC50', 7.42),
  ('COc1ccc(-c2cc(OC)cc(C(C)C#Cc3c(C)nc(N)nc3N)c2)cc1 (racemic)', 'pIC50', 7.52),
  ('COc1cc(CC#Cc2c(C)nc(N)nc2N)cc(-c2c(C)cccc2C)c1', 'pIC50', 7.26);
